Source: patent US11191732B2

Observed IC50, system GLS (Homo sapiens (Human)).
observation-type: IC50 (nM)

* Nc1nnc(CCSCCc2nnc(N)s2)s1 [Compound 2] | 100000
* O=C(CCCCc1nnc(NC(=O)Cc2ccccc2)s1)NCCN1CCCC1 [Compound 4] | 4600
* Nc1nnc(CCCCc2nnc(NC(=O)Cc3ccccc3)s2)s1 [Compound 3] | 1900
* O=C(O)CCCCCC(=O)Nc1nnc(CCCCc2nnc(NC(=O)Cc3ccccc3)s2)s1 [Compound 7] | 100
* O=C(O)CCCCC(=O)Nc1nnc(CCCCc2nnc(NC(=O)Cc3ccccc3)s2)s1 [Compound 6] | 100
